Target: T1, hANGPTL3(17-169)-mFc (human)
T1 construct: also called N-terminal coiled-coil domain of hANGPTL3 with a C-terminal mouse Fc fusion
T1 chain: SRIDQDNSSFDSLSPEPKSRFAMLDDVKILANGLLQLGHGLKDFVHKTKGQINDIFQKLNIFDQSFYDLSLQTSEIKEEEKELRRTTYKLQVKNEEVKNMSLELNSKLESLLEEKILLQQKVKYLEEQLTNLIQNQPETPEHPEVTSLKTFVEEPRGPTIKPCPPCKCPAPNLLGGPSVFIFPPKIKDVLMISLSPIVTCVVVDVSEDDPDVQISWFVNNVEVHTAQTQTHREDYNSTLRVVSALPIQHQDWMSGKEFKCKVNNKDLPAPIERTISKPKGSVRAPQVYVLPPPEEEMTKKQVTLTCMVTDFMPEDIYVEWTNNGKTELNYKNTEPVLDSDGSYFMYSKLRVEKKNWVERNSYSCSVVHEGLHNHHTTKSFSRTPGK
Assay: SPR Biacore, antigen captured, 25C, pH 7.4, HBS-EP
# pKd values compiled below
FYI, pKd means -log10 of a concentration in mol per litre.

Worked cases, pKd given:
binder="H4H1268S (antibody, IgG4, V domains shown) VH: QVQLQQSGPGLVKPSQTLSLTCAISGDSVSSNSPAWNWIRQSPSRGLEWLGRTYYRSKWYNDYAVSVRGRITINPDTSNNQFSLHLNSVTPEDTAMYYCARDKGLTARPTYFDYWGQGTLVTVSS VL: DIQMTQSPSTLSASVGDRVTITCRASQSINYWLAWYQQKPGKAPKPLIYKASSLESGVPSRFSGSGSGTEFTLTISSLQPDDFTTYYCQQYNSYSPTFGQGTKLEIKR" measurement=9.14
binder="H4H1279P (antibody, IgG4, V domains shown) VH: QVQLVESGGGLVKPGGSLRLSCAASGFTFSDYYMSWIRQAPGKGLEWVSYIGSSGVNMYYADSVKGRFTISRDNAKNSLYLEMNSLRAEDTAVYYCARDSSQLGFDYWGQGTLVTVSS VL: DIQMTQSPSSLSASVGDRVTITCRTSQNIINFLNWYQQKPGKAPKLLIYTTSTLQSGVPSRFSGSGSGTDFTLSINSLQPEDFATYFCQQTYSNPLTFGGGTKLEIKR" measurement=11.08

Report pKd for H4H1250P (antibody, IgG4, V domains shown) VH: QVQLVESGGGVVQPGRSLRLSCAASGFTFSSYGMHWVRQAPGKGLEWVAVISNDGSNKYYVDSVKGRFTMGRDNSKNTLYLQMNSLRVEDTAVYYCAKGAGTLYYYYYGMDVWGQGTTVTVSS VL: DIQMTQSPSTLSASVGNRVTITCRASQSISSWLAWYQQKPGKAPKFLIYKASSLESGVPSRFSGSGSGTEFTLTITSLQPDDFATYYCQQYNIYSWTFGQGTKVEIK please.
9.28

Report pKd for H4H1282P (antibody, IgG4, V domains shown) VH: EVQLVQSGGGVVQPGRSLRLSCAASGFTFSNYGMHWVRQAPGKGLEWVAVVWYDGDNKYYADSVKGRFTISRDNSKNTLYLQMNSLRAEDTAVYYCARDIITSRPTLDYWGQGTLVTVSS VL: DIQLTQSPSFLSASVGDRVTITCWASQGINSYLAWYQQKPGKAPKLLIYPASTLQSGVPSRFSGSGSGTEFTLTISSLQPVDFATYYCQQLNSYPLTFGGGTKVEIKR please.
10.33

Report pKd for H4H1248P (antibody, IgG4, V domains shown) VH: QVQLVESGGGVVQPGRSLRLSCAASGFTFSSYGMHWVRQAPGKGLEWVAVISYDGSNKYYADSVKGRFTISRDNSKNTLYLQMNSLRAEDTAVYYCAKVGATTFYYYYGMDVWGQGTTVTVSS VL: DIQMTQSPSSVSAFVGDRVTITCRASQGISSWLAWYQQKPGKAPKLLIYAASSLQSGVPSRFSGSGSGTDFTLTISSLQPEDFATYYCQKANSFPFTFGPGTKVEIK please.
8.23

Report pKd for H4H1263S (antibody, IgG4, V domains shown) VH: QVQLVQSGGGVVQPGRSLRLSCAASGFTFSTYGMHWVRQAPGKGLEWMAVISFDRGNKYYADSVKGRFTISRDNSKNTLYLQMNSLRAEDTAVYYCAKGGGSGTFYYYYGMDVWGQGTTVTVSS VL: DIQMTQSPSSVSASVGNRVTITCRASQGISSWLAWYHQKPGKVPKVLIYAASSLQSGVPSRFSGSGSGTDFTLTISSLQPEDFATYYCQQANSFPFTFGPGTKVEIKR please.
8.21

Report pKd for H4H1292P (antibody, IgG4, V domains shown) VH: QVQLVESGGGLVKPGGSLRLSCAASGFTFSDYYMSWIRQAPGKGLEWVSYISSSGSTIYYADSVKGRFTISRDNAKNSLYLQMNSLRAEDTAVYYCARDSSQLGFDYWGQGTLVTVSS VL: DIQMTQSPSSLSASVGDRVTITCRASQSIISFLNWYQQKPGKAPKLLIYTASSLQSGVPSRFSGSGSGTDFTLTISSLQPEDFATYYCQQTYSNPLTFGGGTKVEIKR please.
9.59

Report pKd for H4H1296P (antibody, IgG4, V domains shown) VH: QVQLVESGGVSVKPGGSLRLSCAASGFTFSDYYMSWIRQAPGKGLEWVSYIGSSGTNDYYADSVKGRFTISRDNAKNSLYLQMDSLRAEDTAVYYCARDSSQMGFDYWGQGTLVTVSS VL: DIQMTQSPSSLSASVGDRVTITCRASQNIINFLNWYQQRPGKAPQLLIYVAASLQSGVPSRFTGSGYGTDFTLTISSLQPEDFATYYCQQTYTNPLTFGGGTKVEIKR please.
10.21

Data origin: patent US20150197564A1
